The values you see were collected from patent US5631382A.

experiment: Developed color of polymer plate under xenon light (color density, maximum absorption wavelength); type: physicochemical; conditions: state of developing color, polymer plate
Kindly state λ max for each of the entries shown.
Answers are plain numbers, in nm.

Some molecules with recorded λ max:
O=C1C2=C(c3ccccc3)c3c(oc4ccccc34)C3(C4CCC3CC4)C2C(=O)N1C(Cl)(Cl)Cl (stereo not drawn) : 540
CC1=C2C(=O)N(S(=O)(=O)c3cc(Cl)cc(Cl)c3)C(=O)C2C2(c3c1c1c(n3-c3ccccc3)CCCC1)C1CCC2CC1 (stereo not drawn) : 619

Task: Looking for the measured λ max of COc1c(C)sc2c1C1(C3CC4CC(C3)CC1C4)C1C(=O)N(C(=O)Oc3ccccc3)C(=O)C1=C2C (stereo not drawn) , can you help?
Output: 546

###

experiment: Developed color of polymer plate under xenon light (color density, maximum absorption wavelength); format: physicochemical; conditions: 0.04 parts in polymer plate
Exam item: assign TRUE to entries whose Color density is below 0.9 and FALSE to entries at or above 0.9. Note that a value of exactly 0.9 receives FALSE.

Cn1c(Cl)cc2c1C1(C3CCCC1(Cl)CCC3)C1C(=O)N(C(F)(F)F)C(=O)C1=C2c1ccccc1 (stereo not shown) : TRUE

Task: Dear reviewer, please state whether CCOC(=O)CN1C(=O)C2=C(C)c3cc(-c4ccc(OC)cc4)n(C)c3C3(C4CC5CC(C4)CC3C5)C2C1=O (stereo not shown) [H, reference compound] has Color density strictly beneath 0.9.
Output: TRUE

Task: Do the same for CC(C)C1=C2C(=O)N(S(C)(=O)=O)C(=O)C2C2(c3c1ccn3C)C1CC3CC2CC(Cl)(C3)C1 (stereo not shown) please
Output: FALSE

Task: How about this compound: CC1=C2C(=O)N(C#N)C(=O)C2C2(c3oc(-c4ccccc4)cc31)C1CC3CC(C1)CC2C3 (stereo not shown)
Output: FALSE

###

assay: Initial color of polymer plate (visual observation, YI by color-difference meter); assay type: physicochemical; details: color-difference meter SM-4
property: Initial color, YI
Answers are plain numbers.

Worked examples, 3 compounds total:
CCN1C(=O)C2=C(C)c3ccsc3C3(C4CC5CC(C4)CC3C5)C2C1=O (centres unmarked) [A, reference compound] : 10.03
CCCC1=C2C(=O)N(C(Cl)(Cl)Cl)C(=O)C2C2(c3oc4c(c31)CCCC4)C1CCC2CC1 (centres unmarked) [Compound 24] : 2.45
CSc1cc2c(n1C)C1(C3C(=O)N(C(F)(F)F)C(=O)C3=C2C(C)C)C2(C)CCC1(C)CC2 (centres unmarked) [Compound 19] : 3.05

Hi, could you look up Initial color, YI for each item in my list?
1. CCN1C(=O)C2=C(C)c3cc(-c4ccc(OC)cc4)n(C)c3C3(C4CC5CC(C4)CC3C5)C2C1=O (centres unmarked) [G, reference compound]
2. CC1=C2C(=O)N(C(=O)c3ccccc3)C(=O)C2C2(c3occc31)C1CC3CC(C1)CC2C3 (centres unmarked) [Compound 33]
3. N#CN1C(=O)C2=C(c3ccoc3)c3ccoc3C3(C4CCC3CC4)C2C1=O (centres unmarked) [Compound 18]
4. CC(C)C1=C2C(=O)N(S(C)(=O)=O)C(=O)C2C2(c3c1ccn3C)C1CC3CC2CC(Cl)(C3)C1 (centres unmarked) [Compound 6]

Output:
1: 19.56; 2: 2.16; 3: 2.95; 4: 4.85

Provide Initial color, YI values for the following items, in order.
1. COc1ccc(-c2cc3c(s2)C2(C4CC5CC(C4)CC2C5)C2C(=O)N(CC#N)C(=O)C2=C3C)cc1 (centres unmarked) [E, reference compound]
2. COc1ccc(-c2cc3c(n2C)C2(C4CC5CC(C4)CC2C5)C2C(=O)N(CC#N)C(=O)C2=C3C)cc1 (centres unmarked) [I, reference compound]
3. CC12CCCC(CCC1)C21c2sc([N+](=O)[O-])cc2C(C2CC2)=C2C(=O)N(C(=O)c3c(F)c(F)c(F)c(F)c3F)C(=O)C21 (centres unmarked) [Compound 12]
4. CC1=C2C(=O)N(CC#N)C(=O)C2C2(c3sc(-c4ccccc4)cc31)C1CC3CC(C1)CC2C3 (centres unmarked) [D, reference compound]
5. COC12CC3CC(C1)C1(c4c(c5ccccc5n4-c4ccccc4)C(C4CC4)=C4C(=O)N(C(Cl)(Cl)Cl)C(=O)C41)C(C3)C2 (centres unmarked) [Compound 9]
6. CCC1=C2C(=O)N(C(=O)C(Cl)(Cl)Cl)C(=O)C2C2(c3sc4cc(OC)ccc4c31)C1CC3CC(Cl)(C1)CC2(Cl)C3 (centres unmarked) [Compound 7]
7. CC1=C2C(=O)N(C#N)C(=O)C2C2(c3occc31)C1CC3CC(C1)CC2C3 (centres unmarked) [Compound 31]

Output:
1. 18.21
2. 18.89
3. 2.25
4. 10.75
5. 3.85
6. 2.15
7. 2.00

Below are 3 compounds. Give each one its Initial color, YI.
1. CCOC12CCC(CC1)C21c2sc3ccccc3c2C(CC)=C2C(=O)N(S(=O)(=O)CC)C(=O)C21 (centres unmarked) [Compound 20]
2. CC(=O)N1C(=O)C2=C(C)c3ccsc3C3(C4CC5CC(C4)CC3C5)C2C1=O (centres unmarked) [Compound 32]
3. CC(=O)N1C(=O)C2=C(C)c3c4c(n(-c5ccccc5)c3C3(C5CCCC3CCC5)C2C1=O)CCCC4 (centres unmarked) [Compound 16]

Output:
4.85
2.11
3.56
